Data credit: PubChem BioAssay (NCI)

Item-by-item account of TGI
test system: MOLT-4 leukemia; assay: NCI tumour cell line growth inhibition, 48 h

compound | TGI
C=C(C)[C@@H]1CC[C@]2(C)[C@H](CC[C@@H]3[C@H]4[C@H]5OC[C@@]4(CCC5(C)C)CC[C@]32C)[C@@]1(C)CCCN | 7.86 µM
CC1OC(OCC2COC(O)(Oc3c(-c4ccc(O)c(O)c4)oc4cc(O)cc(O)c4c3=O)C(O)C2O)C(O)C(O)C1O (configuration not stated) | > 100 µM
NS(=O)(=O)c1ccc(CNc2nc(-c3cccs3)nc3ccc(I)cc23)cc1 | 81.8 µM
O=c1c2ccccc2c2nc3ccccc3nc2n1C1CCCCC1 | > 100 µM
CCOC(=O)NC(NC(C)CC)(C(F)(F)F)C(F)(F)F (configuration not stated) | > 100 µM
CCC(C)C(NC(=O)C1CCCN1C(=O)C(NC(=O)C(C)N)C(C)C)C(N)=O (configuration not stated) | > 100 µM
CN(C1=NCCO1)c1cccc2c1CCCC2 | > 10 µM
CC(=O)N[C@H]1CCCC[C@@H]1OC(C)=O | > 100 µM
CCCCCCCCCCCCCCCCCCOCC(CO[P+](=O)O)OCCCCCCCCCCCCCCCCCC (configuration not stated) | > 50 µM
N.N.NCCCCN.O=C([O-])C1(C(=O)[O-])CCC1.O=C([O-])C1(C(=O)[O-])CCC1.[Pt+4].[Pt+4] | > 100 µM
C[C@@H]1C=C2C(=O)O[C@@H]3CC[C@H](C1)[C@]23O | 21 µM
COP1(=O)Oc2ccccc2C(=O)C(C(F)(F)F)(C(F)(F)F)O1 (configuration not stated) | > 100 µM
COc1cccc(/C=C2\CCCCCC2=O)c1 | > 100 µM
O=c1cnn2c(n1)sc1ccc3ccccc3c12 | > 100 µM
OCCN(CCO)c1ccc2c(c1)Cc1ccccc1-2 | > 100 µM
NC1=N/C(=C2/CCNC(=O)c3[nH]c(Br)cc32)C(=O)N1 | > 52.6 µM
COc1ccc(N2C(=O)C3c4[nH]c5cccc(C)c5c4C4CCC(C(C)(C)C)CC4C3C2=O)cc1 (configuration not stated) | > 10 µM
COc1ccc(/C=C/c2n[nH]c3ccc(N4CCOC4=O)cc23)cc1 | 9.54 µM
COc1ccc(/C=C2\CCC(C)(CN(C)C)C2=O)cc1 (configuration not stated) | > 100 µM
COC1=CC(c2ccc[nH]2)=N/C1=C\c1ccc[nH]1 | 33.7 µM
COc1ccc2nc3ccccc3c(NCCCCCCN(C)CCCl)c2c1 | 0.165 µM
CC(C)OP(=O)(OC(C)C)C(=Nc1ccccc1)NNc1ccc([N+](=O)[O-])cc1 | 41.9 µM
COc1ccccc1CNCCCN1C(=O)c2ccc3c4c(ccc(c24)C1=O)C(=O)N(CCCNCCCN)C3=O | 1.99 µM
Cc1ccc(S(=O)(=O)OC2C(C3COC(C)(C)O3)OC3OC(C)(C)OC32)cc1 (configuration not stated) | > 100 µM
CC(C)(C)C(=O)C(C(c1ccccc1)N1CCOCC1)N1CCOCC1 (configuration not stated) | > 100 µM
CCOC(=O)CCC(NC(=O)Cc1ccc(Oc2nc3ccccc3nc2-c2cccs2)cc1)C(=O)OCC (configuration not stated) | > 100 µM
COc1ccc(-c2nc(-c3nc4ccc(OC)cc4[nH]3)cc3c2[nH]c2ccccc23)cc1 | > 100 µM
CCCCCCCC[N+](C)(CCCCCCCC)CCCCCCCC | 1.37 µM
O=C(NC1=NC2C=CC([N+](=O)[O-])=CC2S1)C(=O)Nn1c(=S)[nH]c2ccccc2c1=O (configuration not stated) | > 100 µM
O=C(CCc1cccc(O)c1)NCCc1ccc(O)cc1 | > 100 µM
COc1cc([C@@H]2c3[nH]c4ccccc4c3C(Nc3ccc([N+](=O)[O-])cc3)[C@H]3COC(=O)N23)cc(OC)c1O (some centres not stated) | 0.289 µM
Clc1c(Cl)c2c(Cl)c(Cl)c1C[P+](c1ccccc1)(c1ccccc1)CC[P+](c1ccccc1)(c1ccccc1)Cc1c(Cl)c(Cl)c(c(Cl)c1Cl)C[P+](c1ccccc1)(c1ccccc1)CC[P+](c1ccccc1)(c1ccccc1)C2 | 10.5 µM
CCCN(CCC)c1ccc(/C=N/NC(=O)c2cccnc2)c(Cl)c1 | 46.2 µM
Cn1c2ccccc2c(=NNc2ccccc2C(=O)O)c2ccccc21 | > 100 µM
NS(=O)(=O)c1ccc(CCN=C=S)cc1 | > 100 µM
COc1cc2nc(Nc3cccc(F)c3)nc(Nc3cc(C)[nH]n3)c2cc1OC | 5.76 µM
N/N=C1\CCCc2c1no[n+]2[O-] | > 100 µM
Cc1cccc(-c2cc(=S)c3cc(N4CCCC4)ccc3[nH]2)c1 | > 100 µM
Nc1c(-c2ccc(Cl)cc2Cl)[n+]([O-])c2ccccc2[n+]1[O-] | > 100 µM
COc1ccc2c(c1)CC[C@@H]1[C@@H]2CC[C@]2(C)C(c3ccco3)=C(C=O)C[C@@H]12 | 38.6 µM
CC1=C(C(=O)Nc2ccc(Cl)c(Cl)c2)C(c2ccco2)C(C(=O)Nc2ccc(Cl)c(Cl)c2)=C(C)N1 | 48 µM
O=C(NCCO)Nc1c(C(F)(F)F)cc(-c2ccccc2)[nH]c1=O | > 100 µM
